Assay: Compound cytotoxicity, XTT-based colorimetric assay
Type: cell-based
Conditions: human; uninfected MT2 cells, day 4, XTT assay
Recorded CC50 at 4 days, one value per entry.

Known CC50 at 4 days results, listed for orientation:
| compound | parameter | recorded.result |
| --- | --- | --- |
| Cn1nc(NS(C)(=O)=O)c2c(Cl)ccc(-n3c([C@H](Cc4cc(F)cc(F)c4)NC(=O)Cn4nc(C(F)F)c5c4C(F)(F)[C@@H]4C[C@H]54)nc4nc(OCC5CCCC5)ccc4c3=O)c21 (atropisomer, axis not shown; (P)) [Example 2] | CC50 at 4 days | > 1000 nM |
| CO[C@H](C)COc1ccc2c(=O)n(-c3ccc(Cl)c4c(NS(C)(=O)=O)nn(C)c34)c([C@H](Cc3cc(F)cc(F)c3)NC(=O)Cn3nc(C(F)F)c4c3C(F)(F)[C@@H]3C[C@H]43)nc2n1 [Example 31] | CC50 at 4 days | > 100 nM |
| CC(C)COCCOc1ccc2c(=O)n(-c3ccc(Cl)c4c(NS(C)(=O)=O)nn(C)c34)c([C@H](Cc3cc(F)cc(F)c3)NC(=O)Cn3nc(C(F)F)c4c3C(F)(F)[C@@H]3C[C@H]43)nc2n1 (atropisomer, axis not shown; (P)) [Example 25] | CC50 at 4 days | > 100 nM |

Next compound, please.
CC50 at 4 days reported for this compound C[C@H](Oc1ccc2c(=O)n(-c3ccc(Cl)c4c(NS(C)(=O)=O)nn(C)c34)c([C@H](Cc3cc(F)cc(F)c3)NC(=O)Cn3nc(C(F)F)c4c3C(F)(F)[C@@H]3C[C@H]43)nc2n1)C1CCCC1 (atropisomer, axis not shown; (P)) [Example 23] : > 500 nM

* * *

Assay: Compound cytotoxicity, XTT-based colorimetric assay
Format: cell-based
Conditions: human; uninfected MT2 cells, day 4, XTT assay
Recorded CC50 at 4 days, one value per entry.

| compound | CC50 at 4 days |
| --- | --- |
| Cn1nc(NS(C)(=O)=O)c2c(Cl)ccc(-n3c([C@H](Cc4cc(F)cc(F)c4)NC(=O)Cn4nc(C(F)F)c5c4C(F)(F)[C@@H]4C[C@H]54)nc4nc(OCCC(C)(C)C)ccc4c3=O)c21 (atropisomer, axis not shown; (P)) | > 1000 nM |

Next compound, please.
CC50 at 4 days reported for this compound Cn1nc(NS(C)(=O)=O)c2c(Cl)ccc(-n3c([C@H](Cc4cc(F)cc(F)c4)NC(=O)Cn4nc(C(F)F)c5c4C(F)(F)[C@@H]4C[C@H]54)nc4nc(OCCc5nccs5)ccc4c3=O)c21 (atropisomer, axis not shown; (P)) : > 500 nM
